System: CCRF-CEM
EXPERIMENT_SUMMARY: In vitro cytotoxicity by its growth inhibitory activity against human leukemic lymphoblasts (CEM cells).
Assay type: functional, cell-based
Label Condition met when IC50 < 800 nM; otherwise Condition not met.

COMPOUND: CCCCCCCCCCCCOC(=O)CCC(NC(=O)c1ccc(N(C)Cc2cnc3nc(N)nc(N)c3n2)cc1)C(=O)O (stereo unspecified)
ANSWER_LABEL: Condition met
//
COMPOUND: CCCCCCCCOC(=O)CCC(NC(=O)c1ccc(N(C)Cc2cnc3nc(N)nc(N)c3n2)cc1)C(=O)O (stereo unspecified)
ANSWER_LABEL: Condition not met
//
COMPOUND: CN(Cc1cnc2nc(N)nc(N)c2n1)c1ccc(C(=O)N[C@@H](CCC(=O)O)C(=O)O)cc1 [METHOTREXATE]
ANSWER_LABEL: Condition met
//
COMPOUND: CCCCCCCCCCCCCCCCOC(=O)CCC(NC(=O)c1ccc(N(C)Cc2cnc3nc(N)nc(N)c3n2)cc1)C(=O)O (stereo unspecified)
ANSWER_LABEL: Condition met
//
COMPOUND: CCCCCCCCCCCCCCCCOC(=O)C(CCC(=O)O)NC(=O)c1ccc(N(C)Cc2cnc3nc(N)nc(N)c3n2)cc1 (stereo unspecified)
ANSWER_LABEL: Condition met
